Where do the numbers come from? From patent US10604526B2.

IC50 listing for selected molecules.
Biological target: hCCR4 (Homo sapiens)
Sequence (P51679 1-360): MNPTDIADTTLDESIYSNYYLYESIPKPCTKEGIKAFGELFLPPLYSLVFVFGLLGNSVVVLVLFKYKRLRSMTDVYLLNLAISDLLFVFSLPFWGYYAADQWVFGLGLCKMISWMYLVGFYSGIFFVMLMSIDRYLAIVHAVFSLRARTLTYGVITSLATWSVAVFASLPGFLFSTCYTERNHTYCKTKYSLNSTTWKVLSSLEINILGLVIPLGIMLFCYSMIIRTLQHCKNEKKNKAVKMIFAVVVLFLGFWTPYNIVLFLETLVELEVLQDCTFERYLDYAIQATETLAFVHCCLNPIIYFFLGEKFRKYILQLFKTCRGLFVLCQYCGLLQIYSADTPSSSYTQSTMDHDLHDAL
Assay: Calcium flux assay
Conditions: Chem5-hCCR4 cells, CCL22 at EC80 of 1.5 nM, FLIPR Calcium 6 dye; read-out: Potency (IC50)
Procedure: Calcium Flux Assay. Compounds were evaluated in a calcium flux assay substantially performed as follows. Chem5-hCCR4 cells (EMD Millipore, Hayward, Calif.; HTS009C) were cultured under standard conditions and frozen in aliquots of 10×10^6 cells/mL. […] Assay plates and working solution of CCL22 were transferred to the FlexStation plate reader (Molecular Devices) at 37° C. for 5 min of equilibration. Fluorescence recordings at 485 excitation/525 emission were performed at 2.5 second intervals. […]

{"MOLECULE": "Cc1nn([C@H](C)c2ccc(Cl)cc2Cl)c2nc(N3CC(C4CCCN(CCO)C4)C3)cnc12 (mixture of isomers)", "IC50": "< 100 nM"}
{"MOLECULE": "C[C@H](c1ccc(Cl)cc1Cl)n1nc(C#N)c2ncc(N3CC(C4CCCN(Cc5cc[nH]n5)C4)C3)nc21 (mixture of isomers)", "IC50": "< 100 nM"}
{"MOLECULE": "Cc1nn([C@H](C)c2ccc(Cl)cc2Cl)c2nc(N3CC(C4CCCN(CCNS(C)(=O)=O)C4)C3)cnc12 (mixture of isomers)", "IC50": "< 100 nM"}
{"MOLECULE": "CC(C)N1CCC[C@H](C2CN(c3cnc4c(C(F)(F)F)nn([C@H](C)c5ccc(Cl)cc5Cl)c4n3)C2)C1", "IC50": "100 to 500 nM"}
